# STUDY SYSTEM: isolated rNav1.2a VSD IV paddle peptide with R1629A/L1630A substitutions and C-terminal K-linked biotin (rat)
# ASSAY NAME: SPR (Biacore T200), heterogeneous ligand model, site 2, n=3, mean±SD; site 2, lower affinity KD2, n=3
PARAMETER: Kd (nM)

BINDER: AaHII from Androctonus australis hector, P01484 20-83 (modifications not checked) VKDGYIVDDVNCTYFCGRNAYCNEECTKLKGESGYCQWASPYGNACYCYKLPDHVRTKGPGRCH
PARAMETER: Kd
RESULT NUMBER: 747
